Target: recombinant HIV-1 integrase (Human immunodeficiency virus type 1 group M subtype B)
Test: High throughput electrochemiluminescent
MEASURED ENDPOINT: IC50 (nM)
Report as a plain number; the unit nM is understood.

| COMPOUND | ASSAYED TARGET | IC50 (nM) |
| --- | --- | --- |
| O=C(O)/C(O)=C/C(=O)c1cn(Cc2ccc(F)cc2)c2c(Cl)cccc2c1=O | recombinant HIV-1 integrase (Human immunodeficiency virus type 1 group M subtype B) | 23 |

Next, consider the following compound.
Prompt: Fill blank: measured IC50 of the compound O=C(O)/C(O)=C/C(=O)c1cn(Cc2ccc(F)cc2)c2ccc(F)cc2c1=O is ____.
Response: 30
